This collection of values is drawn from a collection of fitness landscapes (doi:10.1016/j.celrep.2020.107928).

B1: Caulobacter ParB omega fusion; a variant is named by its letters at X, in order, B8GW30 (parent)
chain: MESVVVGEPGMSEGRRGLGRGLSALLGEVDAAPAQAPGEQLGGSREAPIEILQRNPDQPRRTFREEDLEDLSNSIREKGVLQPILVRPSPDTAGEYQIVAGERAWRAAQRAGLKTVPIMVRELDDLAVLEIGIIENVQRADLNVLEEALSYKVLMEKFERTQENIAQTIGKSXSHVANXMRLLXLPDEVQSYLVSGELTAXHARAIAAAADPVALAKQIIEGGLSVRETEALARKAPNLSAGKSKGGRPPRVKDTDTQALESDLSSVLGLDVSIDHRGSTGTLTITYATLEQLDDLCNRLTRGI

- Variants of: B1
- Run description: one-hybrid fitness for binding NBS DNA (the Noc-binding site; scaled: cognate 1, non-cognate 0); higher = stronger binding
- Assay context: with NBS DNA site
The full ranking holds about 81,000 sequences; the median of “one-hybrid fitness for binding NBS DNA” is about -0.1, and the highest 2% start at about 0.36. This is one part of a sample in which the highest values are shown more often than they occur.
Recorded endpoint: one-hybrid fitness for binding NBS DNA

> print(dat)
    mutation.code  result
 1           KSKR   0.342
 2           RKDH   0.401
 3           SFSC   ≤ 0.2
 4           PACV   ≤ 0.2
 5           KRCD   ≤ 0.2
 6           HATK   ≤ 0.2
 7           QQDG   ≤ 0.2
 8           LSDV   ≤ 0.2
 9           QYGK   ≤ 0.2
10           HKFT   ≤ 0.2
11           RITT   0.421
12           LQWD   ≤ 0.2
13           QYLR   0.436
14           YSRC   ≤ 0.2
15           KKKS   0.425
16           QQAK   ≤ 0.2
17           QYPR    0.27
18           RLST    0.46
19           QRIA   0.436
20           MEGC   ≤ 0.2
21           QQKP   0.336
22           KKVS   ≤ 0.2
23           NRDT   ≤ 0.2
24           VDPI   ≤ 0.2
25           QPSA   ≤ 0.2
26           VIQR   ≤ 0.2
27           SNHH   ≤ 0.2
28           RKIP   ≤ 0.2
29           LLIF   ≤ 0.2
30           SMHC   ≤ 0.2
31           WQYS   ≤ 0.2
32           KRRT   0.674
33           RKIR   0.384
34           RKYH   0.228
35           KMKY   ≤ 0.2
36           RTRV   0.288
37           KRYT   0.613
38           QQKD   0.345
39           NRRT   ≤ 0.2
40           QQRG   0.407
41           QQVM   ≤ 0.2
42           RKRD   ≤ 0.2
43           QYIR   0.346
44           ARKC   ≤ 0.2
45           RITG   ≤ 0.2
46           KCKR   0.397
47           QQKM   0.476
48           RLRT   0.657
49           LLMW   ≤ 0.2
50           LAHD   ≤ 0.2
51           RKNH   0.335
52           QSLA   ≤ 0.2
53           PNVE   ≤ 0.2
54           QSSA   ≤ 0.2
55           RLHY   ≤ 0.2
56           QRPA   0.207
57           PANI   ≤ 0.2
58           KKWY   ≤ 0.2
59           QRLA   0.547
60           RATK   ≤ 0.2
61           RKIS   0.403
62           RTCK   ≤ 0.2
63           RKPR   ≤ 0.2
64           TAYQ   ≤ 0.2
65           QYLP   ≤ 0.2
66           NKRM   ≤ 0.2
67           NRNT   ≤ 0.2
68           YFYC   ≤ 0.2
69           CPSC   ≤ 0.2
70           QQPK   ≤ 0.2
71           NQKR   ≤ 0.2
72           RKPS   ≤ 0.2
73           FCKR   0.392
74           RCLR   0.416
75           QQKK   0.506
76           RTRG   0.215
77           KCNT   0.207
78           PHKP   ≤ 0.2
79           AWRT   ≤ 0.2
80           WQEG   ≤ 0.2
81           QQRK   0.499
82           QYNT   0.488
83           PDIW   ≤ 0.2
